- TESTED SYSTEM: Beta-2 adrenergic receptor (Homo sapiens) (UniProt P07550)
- Sequence (P07550 whole entry, looked up): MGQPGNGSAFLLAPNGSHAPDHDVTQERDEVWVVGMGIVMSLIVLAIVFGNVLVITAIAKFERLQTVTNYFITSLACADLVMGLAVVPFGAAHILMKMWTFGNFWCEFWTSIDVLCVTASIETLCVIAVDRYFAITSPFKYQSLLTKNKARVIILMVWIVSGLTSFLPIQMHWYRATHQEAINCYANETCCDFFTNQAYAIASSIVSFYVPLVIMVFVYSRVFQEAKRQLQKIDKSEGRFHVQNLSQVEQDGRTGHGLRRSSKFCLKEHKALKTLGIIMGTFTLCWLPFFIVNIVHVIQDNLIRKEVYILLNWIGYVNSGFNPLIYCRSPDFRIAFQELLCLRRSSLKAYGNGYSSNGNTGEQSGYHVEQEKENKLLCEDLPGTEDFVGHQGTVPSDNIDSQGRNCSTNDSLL
- TEST DESCRIPTION: qHTS assay of beta-arrestin-biased ligands of beta2-adrenergic receptor: NCGC Sytravon Library Screen
- MEASUREMENT CONDITIONS: HTLA Tango cells, beta-arrestin recruitment, luciferase luminescence, 18 h; series mostly up to 46.1 µM
- Source text: The concept of biased agonism is an emerging concept of molecular pharmacology which proposes that seven transmembrane receptors (7TMRs) or G protein-coupled receptors (GPCRs), exist in multiple signaling conformations and complexes and that ligands (either agonists or antagonists) can induce signaling biased responses for distinct signal transduction cascades. […]
Out of some 44,000 compounds screened, fewer than 10 were called active. Only a sample is shown.
PROPERTY: outcome

Observe how each entry below is paired with its result.
O=C(Nc1nnc(S(=O)(=O)N2CCOCC2)s1)c1cccc(Br)c1: inactive
Cc1cccc(CC(=O)Nc2cccc(-c3cn4cccnc4n3)c2)c1: inactive
Cc1ccc(-c2nn3c(=O)cc(CN4CCN(C(=O)Nc5cccc(C(F)(F)F)c5)CC4)nc3s2)cc1: inactive
COc1ccc(OC)c(CNC(=O)c2c3c(nc4ccccc24)C(=O)N(C2CCCCC2)C3)c1: inactive
CC(=O)N1CCCc2cc(S(=O)(=O)N3CCC(C(=O)NCc4ccc(C)cc4)CC3)ccc21: inactive
CCC(C(=O)Nc1cc(OC)ccc1OC)n1c(=O)c(C(F)(F)F)nc2ccccc21 (stereo unspecified): inactive
CCOc1ccc(S(=O)(=O)c2cn(Cc3ccccc3)c3ccc(OCC)cc3c2=O)cc1: inactive
CCN1CCN(c2cc(C)c3cc(NC(=O)c4cc(Cl)ccc4OC)ccc3n2)CC1: inactive

Task item: What value of outcome has been recorded for this entry: Cc1ccc(CN2COc3cc(C)c4c(oc(=O)c5ccccc54)c3C2)cc1
Reply: inactive

Task item: Then CCOc1ccc(CNCCSc2nnnn2C)cc1 ?
Reply: inactive

---

- TESTED SYSTEM: Beta-2 adrenergic receptor (Homo sapiens) (UniProt P07550)
- TEST DESCRIPTION: qHTS assay of beta-arrestin-biased ligands of beta2-adrenergic receptor: NCGC Sytravon Library Screen
- MEASUREMENT CONDITIONS: HTLA Tango cells, beta-arrestin recruitment, luciferase luminescence, 18 h; series mostly up to 46.1 µM
The whole screen tested about 44,000 compounds, of which fewer than 10 were called active. Not all results are given here.
PROPERTY: outcome

Observe how each entry below is paired with its result.
COC(=O)c1cc(S(=O)(=O)N2CCN(c3cc(Cl)ccc3C)CC2)c[nH]1: inactive
CCc1nnc2c3ccccc3nc(N3CCN(c4ccc(C)cc4C)CC3)n12: inactive
COc1ccc(C2C(=O)N(C3CCCCCC3)CC(=O)N2CCc2ccc(Cl)cc2)cc1OC (configuration not stated): inactive
COc1cccc(NC(=O)CSC2=Nc3ccccc3C3=NC(CC(=O)NC4CCCCC4)C(=O)N23)c1 (configuration not stated): inactive
COC(=O)c1ccc2c(c1)N(CC(=O)Nc1ccc(C)c(C)c1)C(=O)c1ccccc1S2: inactive
CCOc1ccccc1CNC(=O)C1CCCN(S(=O)(=O)c2ccc3c(ccn3C)c2)C1 (configuration not stated): inactive
Cc1ccccc1CNC(=O)CCCn1nc(C)c2sc3ccccc3c2c1=O: inactive
Cc1ccc(NC(=O)CN2C(=O)C(c3ccc(F)cc3)=NC23CCCCCC3)c(C)c1: inactive

Task item: What value of outcome has been recorded for this entry: CCOc1ccc(C(=O)c2cn(Cc3ccc(F)cc3)c3ccc(F)cc3c2=O)cc1
Reply: inactive

Task item: Then COc1cccc(NC(=O)CSc2cc(=O)n(C)c3ccc(Cl)cc23)c1 ?
Reply: inactive

Task item: Then COC(=O)CC1Oc2ccccc2-n2cc(-c3ccccc3)nc21 (configuration not stated) ?
Reply: inactive

Task item: Then Cc1ccc(S(=O)(=O)N2CCc3cc(C(=O)Nc4ccc(Cl)cc4C)ccc32)cc1 ?
Reply: inactive

---

- TESTED SYSTEM: Beta-2 adrenergic receptor (Homo sapiens) (UniProt P07550)
- TEST DESCRIPTION: qHTS assay of beta-arrestin-biased ligands of beta2-adrenergic receptor: NCGC Sytravon Library Screen
- MEASUREMENT CONDITIONS: HTLA Tango cells, beta-arrestin recruitment, luciferase luminescence, 18 h; series mostly up to 46.1 µM
Among all 44,000 compounds or so, fewer than 10 were called active. Not all results are given here.
PROPERTY: outcome

Observe how each entry below is paired with its result.
CCOc1ccc(OCC)c(NS(=O)(=O)c2ccc3[nH]c(=O)ccc3c2)c1: inactive
COC(=O)c1ccc(NC(=O)CCc2c(C)nn(-c3ccc(N4CCCC4)nn3)c2C)cc1: inactive
CCn1c2ccccc2c2nnc(N3CCN(c4cc(C)ccc4C)CC3)nc21: inactive
COc1ccc2c(c1)c(N1CCCC1=O)c(C(=O)Nc1ccc(OC)c(Cl)c1)n2C: inactive

Task item: What value of outcome has been recorded for this entry: COc1ccc(C(=O)c2oc3ccccc3c2NC(=O)COc2cccc(C)c2)cc1
Reply: inactive
